System Tested: human C-terminal DNMT3A (a.a. 623-908) (Homo sapiens)
Construct: The human C-terminal DNMT3A (a.a. 623-908); made in house
Sequence (Q9Y6K1 627-912): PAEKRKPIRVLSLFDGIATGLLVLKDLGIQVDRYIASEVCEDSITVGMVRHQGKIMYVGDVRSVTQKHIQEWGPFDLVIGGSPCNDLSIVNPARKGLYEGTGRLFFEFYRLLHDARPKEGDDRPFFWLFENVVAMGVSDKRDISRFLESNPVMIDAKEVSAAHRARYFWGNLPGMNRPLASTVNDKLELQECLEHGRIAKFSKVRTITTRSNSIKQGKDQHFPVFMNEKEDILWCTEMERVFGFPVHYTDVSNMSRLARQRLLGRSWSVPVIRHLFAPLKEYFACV
Assay Text: hDNMT3A restriction-based fluorescence assay
Format: biochemical
Condition Parameters: 10 μM; read-out: hDNMT 3A inhibition, Inhibition (%)
Give inhibition at 10 µM for every item shown.
Answer with a number only, understood to be in %.

Query :: Please provide the recorded inhibition at 10 µM for COc1cc2c3c4c1Oc1cc5c(cc1O4)[C@H](Cc1ccc(O)c(c1)Oc1ccc(cc1)C[C@@H]3N(C)CC2)N(C)CC5 , tested on human C-terminal DNMT3A (a.a. 623-908) (Homo sapiens).
Result :: 23

Query :: Please provide the recorded inhibition at 10 µM for COc1ccc2cc1Oc1ccc(cc1)C[C@H]1c3c(cc(OC)c4c3Oc3cc5c(cc3O4)CCN(C)[C@H]5C2)CCN1C , tested on human C-terminal DNMT3A (a.a. 623-908) (Homo sapiens).
Result :: 56

Query :: Please provide the recorded inhibition at 10 µM for COc1cc2c3c4c1Oc1cc5c(cc1O4)[C@H](Cc1ccc(O)c(c1)Oc1ccc(cc1)C[C@@H]3NCC2)N(C)CC5 , tested on human C-terminal DNMT3A (a.a. 623-908) (Homo sapiens).
Result :: 73

Query :: Please provide the recorded inhibition at 10 µM for COc1cc2c3c4c1Oc1cc5c(cc1O4)[C@H](Cc1ccc(O)c(c1)Oc1ccc(cc1)C[C@@H]3N(C)CC2)NCC5 , tested on human C-terminal DNMT3A (a.a. 623-908) (Homo sapiens).
Result :: 37

Query :: Please provide the recorded inhibition at 10 µM for COc1ccc2cc1Oc1ccc(cc1)C[C@H]1c3c(cc(OC)c4c3Oc3cc5c(cc3O4)CCN[C@H]5C2)CCN1C , tested on human C-terminal DNMT3A (a.a. 623-908) (Homo sapiens).
Result :: 95

Query :: Please provide the recorded inhibition at 10 µM for COc1cc2c3c4c1Oc1cc5c(cc1O4)C(=NCC5)Cc1ccc(O)c(c1)Oc1ccc(cc1)C[C@@H]3N(C)CC2 [Compound 8, 1,2-Dehydroapateline] , tested on human C-terminal DNMT3A (a.a. 623-908) (Homo sapiens).
Result :: 41

Query :: Please provide the recorded inhibition at 10 µM for COc1ccc2cc1Oc1ccc(cc1)C[C@H]1c3c(cc(OC)c4c3Oc3cc5c(cc3O4)CCN=C5C2)CCN1C [Compound 9, 1,2-Dehydrotelobine] , tested on human C-terminal DNMT3A (a.a. 623-908) (Homo sapiens).
Result :: 37

Query :: Please provide the recorded inhibition at 10 µM for COc1ccc2cc1Oc1ccc(cc1)C[C@@H]1NCCc3cc(OC)c4c(c31)Oc1cc3c(cc1O4)CCN(C)[C@H]3C2 , tested on human C-terminal DNMT3A (a.a. 623-908) (Homo sapiens).
Result :: 78

Query :: Please provide the recorded inhibition at 10 µM for COc1ccc2cc1Oc1ccc(cc1)C[C@@H]1NCCc3cc(OC)c4c(c31)Oc1cc3c(cc1O4)CCN[C@H]3C2 , tested on human C-terminal DNMT3A (a.a. 623-908) (Homo sapiens).
Result :: 83
